tested on: OVCAR-4 ovarian; test: NCI-60 one-dose screen, 48 h (100 = growth as untreated, 0 = no growth, -100 = all killed); conditions: 10 µM unless noted
About 83,000 compounds went through this panel and 20% of them were active in at least one assay; those are over-represented in the sample as a whole.
// classify: if (growth < 40%) rule met else rule not met

Request: hey, is growth for COc1cccc2c1C=C1CCCCC3=Cc4c(OC)cccc4OC13O2 lower than 40% or not?
Response: rule not met

Request: Does O=C(NC1C(O)OC(CO)C(O)C1O)NS(=O)(=O)c1ccc(Cl)cc1 (stereo unspecified) have growth strictly under 40%?
Response: rule not met

Request: In plain terms, does O=C(Nc1ccc(N2CCNCC2)cn1)c1[nH]ncc1Nc1ncnc2sccc12 come in under 40% for growth?
Response: rule met

Request: Determine if CCOC(=O)c1cc2c(n1Cc1cc(OC)cc(OC)c1)-c1oncc1CCC2 shows growth strictly lower than 40%.
Response: rule met

Request: Is growth of O=C(c1nc2ccccc2[nH]1)C1C(c2ccc(F)cc2)C2CC3CCCCC3N2[C@@]12C(=O)Nc1ccc(Cl)cc12 (stereo partly specified) strictly below 40%?
Response: rule met

Request: Determine if CCn1c(-c2nonc2Nc2ccc(OC)cc2)nc2ccccc21 shows growth strictly lower than 40%.
Response: rule not met

Request: Strictly below 40%: is that where growth of COc1ccc(/C=C2\N=C(c3ccccc3)N(c3ccc(-c4nc5ccc(C)cc5s4)cc3)C2=O)cc1 sits?
Response: rule not met

Request: Is growth of O=C(CCc1nnc2sc(Cc3ccccc3Cl)nn12)c1nc2ncccc2[nH]1 strictly below 40%?
Response: rule not met

Request: Please indicate whether the reported growth of COc1ccc(Nc2nc(N/N=C/c3ccc(O)cc3)nc(Nc3ccc([N+](=O)[O-])cc3)n2)cc1 is strictly below 40%.
Response: rule not met

Request: Is it true that growth reported for COc1cc(C#N)cc2[nH]c(=O)oc12 is less than 40%?
Response: rule not met

Request: Does the reported growth of CN1C(=O)N(C)C2Nn3c(s/c(=C\c4ccc(Cl)cc4Cl)c3=O)=NC21 (stereo unspecified) stay below 40%?
Response: rule not met

Request: Is 40% strictly greater than the molecule's reported growth? molecule: CCOC(=O)c1cc2c(n1Cc1cccc(OC)c1)-c1oncc1CCC2
Response: rule not met

Request: Answer whether the molecule CS(=O)(=O)Nc1ccc(C(=O)NC(C(=O)NO)c2ccc(-c3cccc(F)c3)cc2)cc1 (stereo unspecified) has growth strictly less than 40%
Response: rule not met

Request: Please indicate whether the reported growth of Nc1ccc(-c2ccc(-c3ccccc3N)c3[nH]c4ccccc4c23)cc1 is strictly below 40%.
Response: rule not met

Request: Identify whether the molecule Cc1ccc(OCCCCCCNCCO)c(C)c1 records growth below 40%.
Response: rule met

Request: Hello, is growth of the following molecule strictly smaller than 40%? Cc1c(-c2csc(-n3nc(C(F)(F)F)cc3C(F)(F)F)n2)no[n+]1[O-]
Response: rule not met

Request: Quick check: does NCCCNc1nc2ccccc2c2c(=O)c3cc(F)ccc3sc12 have growth under 40%?
Response: rule met

Request: Does the reported growth of CNCCNc1nc2ccccc2c2c(=O)c3cccc(C)c3sc12 stay below 40%?
Response: rule met

Request: For CCCCCCc1cc2cc(-c3csc(/C=C/c4ccccc4)n3)c(=O)oc2cc1O , is the recorded growth below the cut-off of 40%?
Response: rule met

Request: State whether 40% exceeds growth recorded for COc1cc2nc(-c3cccc4cccnc34)nc(NC3CCN(Cc4ccccc4)CC3)c2cc1OC .
Response: rule met

Request: Consider COc1ccc(C2Nc3nc(OC)n(C)c(=O)c3N=C3c4ccccc4C(=O)C32)cc1 (stereo unspecified) . Does its growth lie strictly below 40%?
Response: rule not met

Hey, just so you know, these numbers are from PubChem BioAssay (NCI).
